# tested.on: hPK-M2 (Homo sapiens, UniProt P14618)
# Sequence (P14618 whole entry): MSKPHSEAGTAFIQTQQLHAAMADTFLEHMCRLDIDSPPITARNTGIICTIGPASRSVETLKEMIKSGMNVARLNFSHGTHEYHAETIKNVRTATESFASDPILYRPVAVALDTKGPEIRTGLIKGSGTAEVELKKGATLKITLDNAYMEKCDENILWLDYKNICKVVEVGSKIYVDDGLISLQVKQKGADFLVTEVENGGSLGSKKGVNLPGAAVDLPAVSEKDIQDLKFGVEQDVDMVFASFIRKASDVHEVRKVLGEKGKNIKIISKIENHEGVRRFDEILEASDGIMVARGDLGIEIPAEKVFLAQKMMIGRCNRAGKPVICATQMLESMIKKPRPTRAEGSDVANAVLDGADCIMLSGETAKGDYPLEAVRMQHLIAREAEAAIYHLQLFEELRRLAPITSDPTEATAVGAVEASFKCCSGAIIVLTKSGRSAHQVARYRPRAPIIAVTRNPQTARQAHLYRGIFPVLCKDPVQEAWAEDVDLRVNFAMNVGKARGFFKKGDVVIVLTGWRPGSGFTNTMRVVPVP
# assay.summary: Luminescent pyruvate kinase-luciferase coupled assay (KinaseGlo)
# Format: biochemical
# particulars: KinaseGlo; % activation at 57 μM of compound; read-out: hPK, M2 Max. Res.
measurement.name: activation at 57 µM (%)
Numbers only, in %.

| compound | unit.text | activation at 57 µM |
| --- | --- | --- |
| O=S(=O)(c1ccc2c(c1)OCCO2)N1CCN(S(=O)(=O)c2c(F)cccc2F)CC1 [Compound 9] | % | 94.4 |
| Cn1c2cc(C=O)sc2c2cnn(Cc3ccccc3F)c(=O)c21 [Compound 84] | % | 99.8 |
| Cc1ccc(N[S+](=O)([O-])c2ccc3c(c2)CCC(=O)N3)cc1C [Compound 150] | % | 84 |
| COc1ccc(S(=O)(=O)N2CCN(S(=O)(=O)c3ccc(OC)cc3)CC2)cc1 [Compound 3] | % | 87.6 |
| COc1cc(F)c(S(=O)(=O)N2CCCN(S(=O)(=O)c3cccc(NC(C)=O)c3)CC2)c(F)c1 [Compound 126] | % | 83.8 |

Kindly give each listed record's activation at 57 µM.
1. O=S(=O)(NC1CCN(S(=O)(=O)c2c(F)cccc2F)C1)c1ccc2c(c1)OCCO2 (centres unmarked) [Compound 41]
2. O=S(=O)(NC1CCN(S(=O)(=O)c2ccc3c(c2)OCCO3)C1)c1c(F)cccc1F (centres unmarked) [Compound 42]
3. O=S(=O)(c1ccc2c(c1)OCCO2)N1CCN(S(=O)(=O)c2cccc[n+]2[O-])CC1 [Compound 19]

output:
[82.4, 83.7, 81.5]

* * *

# tested.on: UniProtKB P14618
# assay.summary: Luminescent pyruvate kinase-luciferase coupled assay (KinaseGlo)
# Type: biochemical
# particulars: KinaseGlo; % activation at 57 μM of compound; read-out: hPK, M2 Max. Res.
measurement.name: activation at 57 µM (%)
Give bare numbers, in %.

| smiles.input | tested.on | endpoint.result |
| --- | --- | --- |
| Cc1cc2c(s1)c1cnn(Cc3c(F)cccc3Cl)c(=O)c1n2C | UniProtKB P14618 | 92.9 |

Would you mind giving activation at 57 µM for every compound in the list below?
1. O=S(=O)(c1cccc(C(F)(F)F)c1)N1CCN(S(=O)(=O)c2ccc3c(c2)OCCO3)CC1
2. CC(=O)Nc1ccc(S(=O)(=O)N2CCCN(S(=O)(=O)c3ccc4c(c3)OCCO4)CC2)cc1
3. C[C@@H]1CN(S(=O)(=O)c2ccc3c(c2)OCCO3)CCN1S(=O)(=O)c1c(F)cccc1F
4. Cc1cc2[nH]c3c(=O)n(Cc4ccccc4F)ncc3c2s1
5. O=S(=O)(NCCNS(=O)(=O)c1c(F)cccc1F)c1ccc2c(c1)OCCO2
6. Cc1cc2c(s1)c1cnn(Cc3cccc(F)c3F)c(=O)c1n2C
7. COc1cc(F)c(S(=O)(=O)N2CCN(S(=O)(=O)c3ccc4c(c3)OCCO4)CC2)c(F)c1
8. Cc1cc2c(s1)c1cnn(Cc3cccc(F)c3)c(=O)c1n2C

output:
1: 39.3; 2: 81.1; 3: 108; 4: 32.9; 5: 60.3; 6: 72.8; 7: 91.8; 8: 91.5

* * *

# tested.on: hPK-M2 (Homo sapiens)
# assay.summary: Fluorescent pyruvate kinase-lactate dehydrogenase (LDH) coupled secondary assay
# Assay type: biochemical
# particulars: % activation at 57 μM of compound
# Procedure: Fluorescent Pyruvate Kinase-Lactate Dehydrogenase Coupled Secondary Assay. Plates were immediately placed in ViewLux (Perkin Elmer) and NADH fluorescence was determined at 30 second exposure intervals for between 3 and 6 minutes. Data were normalized to the uninhibited and EC100 activation using known activators such as fructose-1,6-bis-phosphate. […] Data was collected on the Perkin Elmer Viewlux.
measurement.name: LDH hPK, M2 Max. Res.

Example results:
| compound | LDH hPK, M2 Max. Res. |
| --- | --- |
| O=S(=O)(c1cccc(O)c1)N1CCN(S(=O)(=O)c2c(F)cccc2F)CC1 [Compound 140] | 148.41% |
| COc1cc(F)c(S(=O)(=O)N2CCCN(S(=O)(=O)c3ccc4c(c3)OCCO4)CC2)c(F)c1 [Compound 128] | 159.85% |
| COc1cc(F)c(S(=O)(=O)N2CCN(S(=O)(=O)c3ccc(N)cc3)CC2)c(F)c1 [Compound 139] | 166.00% |
| Nc1cccc(S(=O)(=O)N2CCCN(S(=O)(=O)c3ccc4c(c3)OCCO4)CC2)c1 [Compound 124] | 169.71% |
| COc1cc(F)c(S(=O)(=O)N2CCCN(S(=O)(=O)c3cccc(NC(C)=O)c3)CC2)c(F)c1 [Compound 126] | 114.61% |

Below is a list of compounds. For each, state its recorded LDH hPK, M2 Max. Res..
1. COc1cc(F)c(S(=O)(=O)N2CCN(S(=O)(=O)c3cccc(NC(C)=O)c3)CC2)c(F)c1 [Compound 133]
2. COc1cc(F)c(S(=O)(=O)N2CCN(S(=O)(=O)c3cccs3)CC2)c(F)c1 [Compound 144]
3. CC(=O)Nc1ccc(S(=O)(=O)N2CCCN(S(=O)(=O)c3ccc4c(c3)OCCO4)CC2)cc1 [Compound 132]
4. COc1cc(F)c(S(=O)(=O)N2CCN(S(=O)(=O)c3ccco3)CC2)c(F)c1 [Compound 145]

output:
94.88%
125.28%
123.97%
106.13%

* * *

# tested.on: hPK-M2 (Homo sapiens, UniProt P14618)
# assay.summary: Fluorescent pyruvate kinase-lactate dehydrogenase (LDH) coupled secondary assay
# Type: biochemical
# particulars: read-out: AC50, LDH assay
Assignment: determine reported AC50 for the given molecules.
Answers are plain numbers, in nM.

Guide cases for AC50, answers given:
| molecule | AC50 / nM |
| --- | --- |
| O=C1CN(S(=O)(=O)c2ccc3c(c2)OCCO3)CCN1S(=O)(=O)c1c(F)cccc1F [Compound 50] | 3160 |
| Cc1cc2c(s1)c1cnn(Cc3ccc(Cl)cc3)c(=O)c1n2C [Compound 108] | 1650 |

Need AC50 for each of these molecules.
1. Cn1c2cc(CO)sc2c2cnn(Cc3ccccc3F)c(=O)c21 [Compound 85]
2. O=S(=O)(c1c(F)cccc1F)N1CCN(S(=O)(=O)c2c(F)cccc2F)CC1 [Compound 22]
3. Cn1c2cc([S+](C)[O-])sc2c2cnn(Cc3ccccc3F)c(=O)c21 (stereo not shown) [Compound 73]
4. O=S(=O)(N[C@H]1CC[C@H](NS(=O)(=O)c2c(F)cccc2F)CC1)c1ccc2c(c1)OCCO2 [Compound 37]

output:
1. 220
2. 172
3. 190
4. 7000

* * *

# tested.on: UniProt:P14618
# assay.summary: Luminescent pyruvate kinase-luciferase coupled assay (KinaseGlo)
# Type: biochemical
# particulars: luminescent pyruvate kinase-luciferase coupled assay (KinaseGlo), tables; read-out: hPK, M2 AC50
measurement.name: log10(AC50) (log10 of the value in nM)
Short version: log10 scale, AC50, nM.

# count of solved cases: 3
| compound | tested.on | endpoint.result |
| --- | --- | --- |
| O=S(=O)(NC1CCN(S(=O)(=O)c2c(F)cccc2F)CC1)c1ccc2c(c1)OCCO2 [Compound 39] | UniProt:P14618 | 3.57 |
| O=S(=O)(NC1CCN(S(=O)(=O)c2ccc3c(c2)OCCO3)CC1)c1c(F)cccc1F [Compound 40] | UniProt:P14618 | 3.95 |
| N#Cc1ccc(S(=O)(=O)N2CCN(S(=O)(=O)c3ccc4c(c3)OCCO4)CC2)cc1 [Compound 4] | UniProt:P14618 | 1.46 |

Please look at the items below and tell me log10(AC50) for each one, in order.
1. Nc1cc(S(=O)(=O)N2CCN(S(=O)(=O)c3ccc4c(c3)OCCO4)CC2)ccn1 [Compound 146]
2. O=S(=O)(c1ccc(Cl)cc1)N1CCN(S(=O)(=O)c2ccc3c(c2)OCCO3)CC1 [Compound 5]
3. Cn1c2cc(CO)sc2c2cnn(Cc3ccccc3F)c(=O)c21 [Compound 85]
4. Cc1cc2c(s1)c1cnn(Cc3cccc(Cl)c3)c(=O)c1n2C [Compound 107]
5. Cc1cc2c(s1)c1cnn(Cc3c(F)cccc3F)c(=O)c1n2C [Compound 113]
6. COc1ccc(S(=O)(=O)N2CCN(S(=O)(=O)c3c(F)cccc3F)CC2)cc1 [Compound 21]
7. Nc1ccc(S(=O)(=O)N2CCN(S(=O)(=O)c3c(F)cccc3F)CC2)cc1 [Compound 123]

output:
1. 3.20
2. 2.19
3. 1.68
4. 2.10
5. 1.69
6. 1.95
7. 2.81

Could I get log10(AC50) for every one of these entries?
1. Cn1ccc2cc(S(=O)(=O)N3CCN(S(=O)(=O)c4c(F)cccc4F)CC3)ccc21 [Compound 28]
2. COc1ccc(S(=O)(=O)N2CCN(S(=O)(=O)c3ccc4c(c3)OCCO4)CC2)cc1 [Compound 1]
3. O=S(=O)(NCCCCCCNS(=O)(=O)c1c(F)cccc1F)c1ccc2c(c1)OCCO2 [Compound 36]

output:
1. 2.59
2. 2.05
3. 3.68

List log10(AC50) for every entry below, keeping the order given.
1. COc1cccc(S(=O)(=O)N2CCN(S(=O)(=O)c3ccc4c(c3)OCCO4)CC2)c1 [Compound 17]
2. O=S(=O)(NCCCCCNS(=O)(=O)c1c(F)cccc1F)c1ccc2c(c1)OCCO2 [Compound 35]
3. O=S(=O)(NCCCNS(=O)(=O)c1c(F)cccc1F)c1ccc2c(c1)OCCO2 [Compound 33]
4. COc1cc(F)c(S(=O)(=O)N2CCN(S(=O)(=O)c3cccs3)CC2)c(F)c1 [Compound 144]

output:
1. 2.05
2. 3.37
3. 3.59
4. 1.56
